target_of_assay: CaAbp1-D1
assay_notes: SPOT peptide array binding signal intensity (averaged, normalized) (arbitrary units (background-subtracted, floor 0; scale differs between SH3 domains)); higher = stronger binding of the SH3 domain to the peptide
Each entry below lists one item and its recorded SPOT peptide array binding signal intensity value.
Form: value (number only, do not type unit).

Here's what some known entries look like.
{"binder": "HPRFVSPRIPSRIVK", "value_measured": 322}
{"binder": "NFKRLLPRDPSEKSS", "value_measured": 126}
{"binder": "SKIRPTPRKPSRMAT", "value_measured": 3050}
{"binder": "PPPPPPPPPPLPQSL", "value_measured": 29.5}

Let us examine a further case.
[ask] Can you share its SPOT peptide array binding signal intensity? I mean this binder: SSSSTPPTLPPRRIE
[reply] 24

These measurements were taken from the supplement of paper PMC4466140.
